# target_entity: human PPARalpha (Homo sapiens)
# Construct: human PPARalpha receptor (amino acids S167-Y468); plasmid pcDNA3
# Sequence (Q07869 167-468): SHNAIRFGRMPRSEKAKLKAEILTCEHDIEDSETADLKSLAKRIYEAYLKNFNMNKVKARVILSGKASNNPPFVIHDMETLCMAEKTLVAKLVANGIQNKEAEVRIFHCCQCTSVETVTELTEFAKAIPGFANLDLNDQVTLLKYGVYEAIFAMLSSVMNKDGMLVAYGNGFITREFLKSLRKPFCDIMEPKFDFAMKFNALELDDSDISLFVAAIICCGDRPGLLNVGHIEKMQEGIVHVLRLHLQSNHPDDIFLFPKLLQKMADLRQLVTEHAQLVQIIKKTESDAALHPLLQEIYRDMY
# assay_remarks: Cellular PPARalpha assay (HEK PPARalpha reporter cell line, luciferase)
# condition_details: 24 h incubation
# Protocol: The activity of the compounds was tested as follows. The potency of substances which bind to human PPARalpha and activate it in an agonistic manner is analyzed using a stably transfected HEK cell line (HEK=human embryo kidney) which is referred to here as PPARalpha reporter cell line. […] The luciferase which is formed can be detected by means of chemiluminescence via an appropriate substrate. […] The activity of PPARalpha agonists is determined in a 3-day assay which is described below: […]
experimental_endpoint: EC50 (µM)

Use the examples below as a reference point.
{"compound": "COCc1nc([C@H]2CC[C@H](C(F)(F)F)CC2)oc1COc1ccc(-c2noc(=O)[nH]2)c(Cl)c1 [Example 18a]", "obs_value": 2.5}
{"compound": "COCc1nc(C2CCCCCC2)sc1COc1ccc(-c2noc(=O)[nH]2)c(Cl)c1", "obs_value": 1.25}
{"compound": "Cc1nc(C2CCCCC2)sc1COc1ccc(-c2noc(=O)[nH]2)c(Cl)c1", "obs_value": 1.26}

[a] O=c1[nH]c(-c2ccc(OCc3sc(-c4ccc(C(F)(F)F)nc4)nc3CCCOCc3ccccc3)cc2Cl)no1
[b] COCc1nc([C@H]2CC[C@H](c3ccc(Cl)cc3)CC2)sc1COc1ccc(-c2noc(=O)[nH]2)c(Cl)c1
[c] Cc1nc(-c2cccc3cccnc23)sc1COc1ccc(-c2nc(=O)o[nH]2)c(Cl)c1
[d] COCc1nc(CCC2CCCCC2)sc1COc1ccc(-c2noc(=O)[nH]2)c(Cl)c1
q: Ascending by EC50, please: list the compounds accordingly. Returns: the labels arranged in the requested order.
a: a, d, b, c

----------
# target_entity: human PPARdelta (Homo sapiens, UniProt Q03181)
# Construct: human PPARdelta receptor (amino acids S139-Y441); plasmid pcDNA3
# Sequence (Q03181 139-441): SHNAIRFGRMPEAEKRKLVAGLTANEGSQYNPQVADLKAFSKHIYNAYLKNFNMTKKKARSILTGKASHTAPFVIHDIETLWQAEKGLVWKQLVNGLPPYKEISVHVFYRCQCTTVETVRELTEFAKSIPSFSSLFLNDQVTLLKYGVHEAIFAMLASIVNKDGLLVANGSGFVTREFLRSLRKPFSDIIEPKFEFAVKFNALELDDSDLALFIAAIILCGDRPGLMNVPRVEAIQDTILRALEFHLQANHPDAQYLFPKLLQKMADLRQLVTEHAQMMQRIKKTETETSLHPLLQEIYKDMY
# assay_remarks: Cellular PPARdelta assay (HEK PPARdelta reporter cell line, luciferase)
# condition_details: 24 h incubation
pEC50: −log10 of the molar value.
experimental_endpoint: pEC50

{"molecule": "Cc1nc(-c2ccc(C(F)(F)F)nc2)sc1C(OCc1ccc(-c2noc(=O)[nH]2)c(Cl)n1)C(F)(F)F (centres unmarked) [Example 37]", "pEC50": 7.23}
{"molecule": "Cc1nc(-c2ccc(C(F)(F)F)nc2)sc1C(OCc1ccc(-c2noc(=O)[nH]2)c(F)c1)C(F)(F)F (centres unmarked) [Example 31]", "pEC50": 7.85}
{"molecule": "COCc1nc(C2CCCCCC2)sc1COc1ccc(-c2noc(=O)[nH]2)c(Cl)c1 [Example 11]", "pEC50": 6.89}

[I] COCc1nc([C@H]2CC[C@H](c3ccc(Cl)cc3)CC2)sc1COc1ccc(-c2noc(=O)[nH]2)c(Cl)c1 [Example 12]
[II] O=c1[nH]c(-c2cc(F)c(OCc3sc([C@H]4CC[C@H](C(F)(F)F)CC4)nc3CN3CCC(C(F)(F)F)CC3)cc2OC(F)F)no1 [Example 62]
[III] CCC(Oc1ccc(-c2noc(=O)[nH]2)c(F)c1)c1sc([C@H]2CC[C@H](C(F)(F)F)CC2)nc1CN1CCC(C(F)(F)F)CC1 (some centres unmarked) [Example 68]
q: Highest pEC50 first, then in falling order down to the smallest. Returns: the labels arranged in the requested order.
a: I, II, III

Values were extracted from patent US7709481B2.
